target: P. falciparum apicoplast DNA polymerase (Pf-apPOL) (Plasmodium falciparum, UniProt Q8ILY1); assay: Fluorescence-based high-throughput DNA polymerase assay (molecular beacon), primary screen and dose-response; format: biochemical; conditions: DRC-2; 40'; concentration 2.5;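 note: compound concentration given in µM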
Sequence (Q8ILY1 entry or part of it): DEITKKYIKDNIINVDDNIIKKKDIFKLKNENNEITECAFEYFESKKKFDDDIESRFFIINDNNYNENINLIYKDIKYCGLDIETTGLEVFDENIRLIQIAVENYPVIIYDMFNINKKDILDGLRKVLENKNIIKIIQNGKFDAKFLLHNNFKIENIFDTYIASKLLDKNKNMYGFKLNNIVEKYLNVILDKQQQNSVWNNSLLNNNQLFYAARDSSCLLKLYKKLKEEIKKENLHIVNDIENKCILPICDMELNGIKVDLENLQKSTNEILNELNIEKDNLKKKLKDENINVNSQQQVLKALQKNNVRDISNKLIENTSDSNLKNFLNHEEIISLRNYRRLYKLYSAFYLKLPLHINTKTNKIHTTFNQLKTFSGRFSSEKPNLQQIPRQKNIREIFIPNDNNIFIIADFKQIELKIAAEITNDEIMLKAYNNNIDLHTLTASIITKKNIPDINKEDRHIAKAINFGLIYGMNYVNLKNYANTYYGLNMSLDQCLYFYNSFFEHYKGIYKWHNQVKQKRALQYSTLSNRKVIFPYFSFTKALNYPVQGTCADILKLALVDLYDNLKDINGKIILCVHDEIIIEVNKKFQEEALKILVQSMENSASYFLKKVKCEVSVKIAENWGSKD
Below, each of the compounds is paired with its reported % inhibition Apol 40' value.
// note: answer is a bare numeric in %

>  <compound.structure>
Cc1ccc(CCNC(=O)c2cnn3c(O)c(Cc4ccccc4F)c(C)nc23)cc1

>  <target.or.test.system>
P. falciparum apicoplast DNA polymerase (Pf-apPOL) (Plasmodium falciparum, UniProt Q8ILY1)

>  <% inhibition Apol 40' / %>
-0.896

$$$$

Quote % inhibition Apol 40' reported for Cc1ccc(C)c(CSc2nc(C3CCCCC3)c(C#N)c(=O)[nH]2)c1 please.
13

Quote % inhibition Apol 40' reported for O=c1cc(-c2ccccc2Cl)oc2c(NS(=O)(=O)c3cc(Cl)cc(Cl)c3O)ccc(O)c12 please.
-1.34

Quote % inhibition Apol 40' reported for O=c1cc(-c2ccccc2)oc2c(O)c(O)ccc12 please.
10
